Reference source for all entries: ChEMBL document CHEMBL1201862

Entries and their measured EC50 follow.
experiment: Trypanosoma cruzi growth suppression in host cells – NIH3T3 host cells, beta-gal luminescence, confirmation (AID 2044); assay type: functional, cell-based;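 further: intracellular parasites grown in NIH/3T3 mouse fibroblasts as host cells; luminescent beta-galactosidase reporter signal from transgenic T. cruzi replicating inside host cells; inhibitors lower the luminescence signal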
Activity calls are given as the source filed them. No stated cut-off is given here; in the data, actives have a measured EC50 and inactives only a lower limit.
quantityName: EC50

compound=O=c1c2c3c(sc2n(CCN2CCCC2)c(=O)n1Cc1ccco1)CCCCC3 measuredvalue="331 nM (active)"
compound=CN1c2ccccc2N(C)C1(C)c1cccc2ccccc12 measuredvalue="544 nM (active)"
compound=CN(C)CCC1CCN(c2cc(C#N)c(C#N)cc2[N+](=O)[O-])CC1 measuredvalue="345 nM (active)"
compound="CC(O)CNc1nc2sc3c(c2c(=O)n1CCc1ccccc1)CCCCC3 (stereo not given)" measuredvalue="1890 nM (active)"
compound="CC(C)c1ccc(-c2cc(C(=O)N3N=C(C(F)F)CC3(O)C(F)F)c3ccccc3n2)cc1 (stereo not given)" measuredvalue="3400 nM (active)"
compound=Fc1ccc(-c2cc3nc(-c4ccccc4)cc(N4CCN(CCN5CCOCC5)CC4)n3n2)cc1 measuredvalue="4900 nM (active)"
compound=CN(C)CCCn1c(SCC(=O)N2c3ccccc3Sc3ccccc32)nc2ccccc2c1=O measuredvalue="268 nM (active)"
compound=Fc1ccc(Nc2c3c(nc4ccccc24)CCC3)cc1 measuredvalue="2480 nM (active)"
compound=O=C(Cn1cnc([N+](=O)[O-])n1)NCc1ccccc1 measuredvalue="479 nM (active)"
compound="CCC(C(=O)OCC(=O)Nc1ccc(SC(F)F)cc1)c1ccccc1 (stereo not given)" measuredvalue="1680 nM (active)"
